Answer each item with its documented folding stability dG.
B1: HEEH_KT_rd6_3546 (parent)
chain: SEEDKEREHWERLNRDFELRVLDTTFIAHHAEEVIKLLRWLEK

Variants of: B1
PROCEDURE SUMMARY: folding stability dG (cDNA display proteolysis); higher = more stable
CONDITION SET: PBS, room temperature
One number for each entry, in kcal/mol.

Below, 2 variants whose answers are already recorded.
MUT: E8I
REPORTED: 1.43
//
MUT: R12F
REPORTED: 1.76

State the recorded folding stability dG for every item in the following list.
1. E8K
2. E42K
3. W10K
4. A31D
5. L19C
6. F17G

Result:
1: 1.32; 2: 1.69; 3: 1.22; 4: 0.6; 5: 2.03; 6: 0.579

Each variant below has a reported value. Please supply its folding stability dG.
1. D16K
2. E18D
3. W10I
4. F17W
5. R20C
6. D23L
7. E33V
8. K36P

Result:
1.38
1.42
1.2
1.55
2.37
2.86
2.06
0.419

Below is a list of variants. For each, state its recorded folding stability dG.
1. L19E
2. E11N
3. R15K
4. S1Y
5. A28M
6. E18Y

Result:
0.795
1.59
1.25
1.27
1.84
2.4
